Tested on: NCI-H650;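 note: growth inhibition of NCI-H650 cells, read out by a viability assay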
Protocol notes: cells
Format: functional, cell-based, Homo sapiens
Recorded conditions: nci-h650
Description: SANGER: Inhibition of human NCI-H650 cell growth in a cell viability assay.
Parameter measured: IC50

[[record]]
biopolymer_sequence = "CISPLATIN"
tgt = "NCI-H650"
recorded_result = "29.9 µM"


====

Tested on: KYSE-140;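 note: cell viability assay measuring growth inhibition in human KYSE-140 cells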
Protocol notes: cells
Format: functional, cell-based, Homo sapiens
Recorded conditions: Homo sapiens, KYSE-140
Description: SANGER: Inhibition of human KYSE-140 cell growth in a cell viability assay.
Where a name gives a salt, the structure may show the parent alone.
Reported IC50 values are given for each entry in this list.
Parameter measured: IC50

[[record]]
compound = "Nc1ccn([C@@H]2O[C@H](CO)[C@@H](O)C2(F)F)c(=O)n1 [GEMCITABINE]"
tgt = "KYSE-140"
recorded_result = "27.9 nM"

[[record]]
compound = "CCC/C=C/C=C/C(=O)O[C@H]1/C(=C/C(=O)OC)C[C@H]2C[C@H]([C@@H](C)O)OC(=O)C[C@H](O)C[C@@H]3C[C@H](OC(C)=O)C(C)(C)[C@](O)(C[C@@H]4C/C(=C/C(=O)OC)C[C@H](/C=C/C(C)(C)[C@]1(O)O2)O4)O3 [BRYOSTATIN 1]"
tgt = "KYSE-140"
recorded_result = "> 8 nM"

[[record]]
compound = "CO[C@H]1C[C@@H]2CC[C@@H](C)[C@@](O)(O2)C(=O)C(=O)N2CCCC[C@H]2C(=O)O[C@H]([C@H](C)C[C@@H]2CC[C@@H](OC(=O)C(C)(CO)CO)[C@H](OC)C2)CC(=O)[C@H](C)/C=C(\\C)[C@@H](O)[C@@H](OC)C(=O)[C@H](C)C[C@H](C)/C=C/C=C/C=C/1C [TEMSIROLIMUS]"
tgt = "KYSE-140"
recorded_result = "156 nM"

[[record]]
compound = "CC1(C)CNc2cc(NC(=O)c3cccnc3NCc3ccncc3)ccc21 [MOTESANIB]"
tgt = "KYSE-140"
recorded_result = "> 2000 nM"

[[record]]
compound = "COC1=CC(c2cc3ccccc3[nH]2)=N/C1=C\\c1[nH]c(C)cc1C [OBATOCLAX MESYLATE]"
tgt = "KYSE-140"
recorded_result = "< 62.5 nM"

[[record]]
compound = "N#Cc1c(O)c2c(-c3ccc(-c4ccccc4O)cc3)csc2[nH]c1=O"
tgt = "KYSE-140"
recorded_result = "> 1020 nM"

